Entries and their pest or weed control at 2241.7 g/ha
System: Dicots
Assay: Herbicidal activity, postemergence, dicot weeds (Table II)
Type: in vivo
Settings: post-emergence, 336 h, 2 lb./A., about 2 weeks, read-out: % control (percent of plants killed)
Enter the number, and then the unit.

Worked set:
O=[N+]([O-])c1ccc(Oc2ccc(C(F)(F)F)cc2Cl)cc1OCC(O)CO (stereo not drawn) [Example 39]: 100%
CSCCOc1cc(Oc2ccc(C(F)(F)F)cc2Cl)ccc1[N+](=O)[O-] [Example 40]: 100%

Please examine the following record next.
// field: pest or weed control at 2241.7 g/ha; key: CN(C)CCOc1cc(Oc2ccc(C(F)(F)F)cc2Cl)ccc1[N+](=O)[O-] [Example 17] ; value = 98%

Source of measurements: patent USRE31731E
